Origin of values: paper PMC7560456

Counter-ions that a name gives are not always drawn.
measureName: melting point

Field: example entries. Status: answers known.
### Prompt Which measured melting point value corresponds to Cc1c(C)n(OCc2ccccc2)c(=S)n1OCc1ccccc1 [7c] ?
### Response 87 to 88 °C

### Prompt Which measured melting point value corresponds to Cc1ccccc1COn1c[n+](OCc2ccccc2C)c(C)c1C.[Br-] [5b] ?
### Response 132 to 133 °C

### Prompt Which measured melting point value corresponds to Cc1ccc(COn2c[n+](OCc3ccc(C)cc3)c(C)c2C)cc1.[Br-] [5c] ?
### Response 111 to 113 °C

### Prompt Which measured melting point value corresponds to Cc1c(C)n(OCc2ccccc2)c(=S)n1Cc1ccccc1 [7a] ?
### Response 116 to 117 °C

### Prompt Which measured melting point value corresponds to Cc1cc(C)cc(COn2c[n+]([O-])c(C)c2C)c1 [3f] ?
### Response 96 to 98 °C

### Prompt Which measured melting point value corresponds to Cc1[nH]c(C23CC4CC(CC(C4)C2)C3)[n+](OCc2ccccc2)c1C.[Br-] [4c] ?
### Response 196 to 197 °C

### Prompt Which measured melting point value corresponds to [Br-].c1ccc(CO[n+]2c(C34CC5CC(CC(C5)C3)C4)[nH]c(-c3ccccc3)c2-c2ccccc2)cc1 [4d] ?
### Response 180 to 182 °C

### Prompt Which measured melting point value corresponds to Cc1ccc(COn2c[n+]([O-])c(C)c2C)cc1 [3e] ?
### Response 101 to 102 °C

### Prompt Which measured melting point value corresponds to c1ccc(CO[n+]2cn(Cc3ccccc3)c(-c3ccccc3)c2-c2ccccc2)cc1 (as salt: phosphate) [6a] ?
### Response 163 to 166 °C

### Prompt Which measured melting point value corresponds to Cc1cc(C)cc(COn2c[n+](OCc3cc(C)cc(C)c3)c(C)c2C)c1.[Br-] [5d] ?
### Response 141 to 143 °C

Further cases:
### Prompt Which measured melting point value corresponds to Cc1ccc(CO[n+]2cn(OCc3ccccc3)c(C)c2C)cc1.[Br-] [5f] ?
### Response 124 to 126 °C

### Prompt Which measured melting point value corresponds to Cc1c(C)[n+](OCc2ccccc2)cn1Cc1ccccc1.[Br-] [4a] ?
### Response 148 to 150 °C

### Prompt Which measured melting point value corresponds to Cc1c(C)[n+]([O-])cn1OCc1ccccc1 [3c] ?
### Response 103 to 105 °C

### Prompt Which measured melting point value corresponds to Cc1cc(C)cc(CO[n+]2cn(OC34CC5CC(CC(C5)C3)C4)c(C)c2C)c1 (as salt: phosphate) (hydrate or solvate) [6b] ?
### Response 150 to 152 °C

### Prompt Which measured melting point value corresponds to Cc1c(C)[n+](OCc2ccccc2)cn1OCc1ccccc1.[Br-] [5a] ?
### Response 110 to 111 °C

### Prompt Which measured melting point value corresponds to [Br-].c1ccc(CO[n+]2cn(Cc3ccccc3)c(-c3ccccc3)c2-c2ccccc2)cc1 [4b] ?
### Response 167 to 169 °C

### Prompt Which measured melting point value corresponds to Cc1ccccc1COn1c[n+]([O-])c(C)c1C [3d] ?
### Response 89 to 91 °C

----------
# pIC50 listing for each entry below
- System: MCF-7 cells
- experimentDescription: MTT in vitro cytotoxicity assay, MCF-7
- Format: cell-based
- particulars: Homo sapiens, MCF7, 48 h, concentration required to inhibit metabolic activity by 50%, mean ± SEM
Please report pIC50 as the negative decimal logarithm of the molar concentration, giving only the number.

Field: example entries. Status: answers known.
### Prompt Which measured pIC50 value corresponds to c1ccc(CO[n+]2cn(Cc3ccccc3)c(-c3ccccc3)c2-c2ccccc2)cc1 ?
### Response 5.89

### Prompt Which measured pIC50 value corresponds to Cc1ccccc1COn1c[n+](OCc2ccccc2C)c(C)c1C.[Br-] ?
### Response 5.08

### Prompt Which measured pIC50 value corresponds to Cc1ccc(CO[n+]2cn(OCc3ccccc3)c(C)c2C)cc1.[Br-] ?
### Response 4.78

### Prompt Which measured pIC50 value corresponds to Cc1ccc(COn2c[n+](OCc3ccc(C)cc3)c(C)c2C)cc1.[Br-] ?
### Response 4.62

### Prompt Which measured pIC50 value corresponds to Cc1cc(C)cc(CO[n+]2cn(OC34CC5CC(CC(C5)C3)C4)c(C)c2C)c1 ?
### Response 5.60

Further cases:
### Prompt Which measured pIC50 value corresponds to Cc1ccccc1CO[n+]1cn(OCc2ccccc2)c(C)c1C ?
### Response 4.94

### Prompt Which measured pIC50 value corresponds to Cc1cc(C)cc(COn2c[n+](OCc3cc(C)cc(C)c3)c(C)c2C)c1.[Br-] ?
### Response 5.07

----------
- Test system: HL-60 cells
- experimentDescription: MTT in vitro cytotoxicity assay, HL-60
- Assay type: cell-based
- particulars: Homo sapiens, HL-60, 48 h, concentration required to inhibit metabolic activity by 50%, mean ± SEM
pIC50: −log10 of the molar value.
If the reported pIC50 equals or exceeds 6, assign label 1. If not, assign label 0.

### Prompt Hi, just wondering whether Cc1ccc(CO[n+]2cn(OCc3ccccc3)c(C)c2C)cc1.[Br-] shows pIC50 of 6 or higher.
### Response label 0

### Prompt Hi, just wondering whether Cc1ccc(COn2c[n+](OCc3ccc(C)cc3)c(C)c2C)cc1.[Br-] shows pIC50 of 6 or higher.
### Response label 0

----------
- Test system: HL-60 cells
- experimentDescription: MTT in vitro cytotoxicity assay, HL-60
- Format: cell-based
- particulars: Homo sapiens, HL-60, 48 h, concentration required to inhibit metabolic activity by 50%, mean ± SEM
- Description: The promyelocytic leukemia HL-60 and breast cancer adenocarcinoma MCF-7 cell lines were purchased from the European Collection of Cell Cultures (ECACC). […] The MTT (3-(4, 5-dimethylthiazol-2-yl)-2, 5-diphenyltetrazolium bromide) assay was performed according to the known procedure. […] Dimethyl sulfoxide (DMSO; 1 mL) was added to each well to dissolve the blue formazan product, whose absorbance was measured at 560 nm using a FlexStation 3 Multi-Mode Microplate Reader (Molecular Devices, LLC, CA, USA). […]
pIC50: −log10 of the molar value.
If the reported pIC50 equals or exceeds 6, assign MET. If not, assign NOT MET.

### Prompt Hi, just wondering whether c1ccc(CO[n+]2cn(Cc3ccccc3)c(-c3ccccc3)c2-c2ccccc2)cc1 shows pIC50 of 6 or higher.
### Response MET

### Prompt Hi, just wondering whether Cc1ccccc1COn1c[n+](OCc2ccccc2C)c(C)c1C.[Br-] shows pIC50 of 6 or higher.
### Response NOT MET

### Prompt Hi, just wondering whether Cc1cc(C)cc(CO[n+]2cn(OC34CC5CC(CC(C5)C3)C4)c(C)c2C)c1 shows pIC50 of 6 or higher.
### Response MET

Further cases:
### Prompt Hi, just wondering whether Cc1ccccc1CO[n+]1cn(OCc2ccccc2)c(C)c1C shows pIC50 of 6 or higher.
### Response NOT MET
